These data points were gathered from paper PMC8847695.

Target under test: AAK1 (121-471) (Homo sapiens, UniProt Q2M2I8)
Sequence (Q2M2I8 46-315 limits assumed): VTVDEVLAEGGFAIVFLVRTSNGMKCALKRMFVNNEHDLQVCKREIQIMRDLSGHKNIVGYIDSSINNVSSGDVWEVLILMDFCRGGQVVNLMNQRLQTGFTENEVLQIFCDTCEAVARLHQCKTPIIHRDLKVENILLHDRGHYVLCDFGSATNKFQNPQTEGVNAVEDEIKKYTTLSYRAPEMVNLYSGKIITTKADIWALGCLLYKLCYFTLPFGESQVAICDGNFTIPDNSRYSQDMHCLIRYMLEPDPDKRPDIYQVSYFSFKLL
Method notes: STD-NMR fragment screening, AAK1
Format: binding
Condition label: 1 = hit, 0 = no hit
Experimental: All fragments were stored at −20°C as solids in argon flushed glass bottles. For NMR screening, fragments were weighed and dissolved in DMSO-d6 to a stock concentration of 300 mM. Mother plates were prepared with a 100 mM concentration. […] Fifteen of these compounds contain the same halogen twice. […] As fragment mixtures can lead to competitive effects between their fragments, it is not advised to use the quantification of peak mixtures for hit ranking.
Quantity measured: AAK1 (STD-NMR hit flag)

[[record]]
molecule = "FC(F)(F)c1cnc(Cl)nc1 [Fragment B02294482]"
endpoint_value = 0

[[record]]
molecule = "Cn1ncc(I)c1C(=O)NN [Fragment B02297766]"
endpoint_value = 0

[[record]]
molecule = "Clc1cccc2nnnn12 [Fragment B02291229]"
endpoint_value = 0

[[record]]
molecule = "O=c1cc(O)c(Cl)c[nH]1 [Fragment B02297427]"
endpoint_value = 0

[[record]]
molecule = "CN(N)c1ncc(C(F)(F)F)cc1Cl [Fragment B02290089]"
endpoint_value = 0

[[record]]
molecule = "CC(=O)CS(=O)(=O)c1cc(Cl)ccc1F [Fragment B02297765]"
endpoint_value = 0

[[record]]
molecule = "O=C(O)c1cccnc1Cl [Fragment B02291258]"
endpoint_value = 0

[[record]]
molecule = "Cc1nc(N)nc(Cl)c1Cl [Fragment B02291102]"
endpoint_value = 1


A: O=C(O)c1cc(Cl)nnc1Cl [Fragment B02290470]
B: Cn1c2nc(Cl)nc-2c(O)n(C)c1=O [Fragment B02291216]
stdin: Returns: the argument ( A or B ) having the larger AAK1 (STD-NMR hit flag). State the label of the item chosen.
stdout: B
(B: 1, A: 0)

---

Target under test: AAK1 (Homo sapiens, UniProt Q2M2I8)
Sequence (Q2M2I8 46-315 limits assumed): as the sequence (Q2M2I8 46-315 limits assumed) above
Method notes: ITC validation, AAK1
Format: binding
Condition label: ITC, 25°C, 5% DMSO, pH 7.4, duplicates
Quantity measured: Kd (µM)

[[record]]
compound = "Nc1ccc2[nH]cnc2c1Br [Fragment 7409]"
quantity_measured = "Kd"
display_unit = "µM"
endpoint_value = 6


I: Clc1ccnc2cc[nH]c12 [Fragment A1]
II: Clc1cccc2cc[nH]c12 [Fragment A6]
stdin: Please indicate which has the smaller reported Kd: I , or II . State the label of the item chosen.
stdout: I
(I: 50 µM, II: 170 µM)

---

Target under test: IDO1 (1-435) (Homo sapiens)
Construct: His-tag of pET15b with TEV site (thrombin site replaced) (cleaved yes); made in house; host or cells: E. coli Rosetta 2 (DE3) pLysS
Sequence (P14902 whole entry): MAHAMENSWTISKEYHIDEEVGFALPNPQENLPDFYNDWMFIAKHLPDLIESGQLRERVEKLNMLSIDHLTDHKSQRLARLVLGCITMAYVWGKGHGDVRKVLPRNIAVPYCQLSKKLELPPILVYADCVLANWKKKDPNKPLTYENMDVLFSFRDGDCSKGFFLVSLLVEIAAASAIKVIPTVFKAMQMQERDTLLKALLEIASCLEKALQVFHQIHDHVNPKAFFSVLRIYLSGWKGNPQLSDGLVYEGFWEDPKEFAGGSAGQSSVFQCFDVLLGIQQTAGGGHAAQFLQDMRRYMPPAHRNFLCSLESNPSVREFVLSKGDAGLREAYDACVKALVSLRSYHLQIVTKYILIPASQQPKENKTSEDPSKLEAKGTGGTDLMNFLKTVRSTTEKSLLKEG
Method notes: STD-NMR fragment screening, IDO1
Assay type: binding
Condition label: 1 = hit, 0 = no hit
Quantity measured: IDO1 (STD-NMR hit flag)

Reference set (2 entries):
[[record]]
compound = "COc1cc(Cl)cnc1OC"
quantity_measured = "IDO1 (STD-NMR hit flag)"
endpoint_value = 1

[[record]]
compound = "Cc1ccc(C(=O)O)c(Cl)n1"
quantity_measured = "IDO1 (STD-NMR hit flag)"
endpoint_value = 0


1: OCc1cc2c(cc1Cl)OCO2
2: CCC(N)c1ccc(Cl)cc1 (stereo not drawn)
stdin: Please indicate which has the smaller reported IDO1 (STD-NMR hit flag): 1 , or 2 . State the label of the item chosen.
stdout: 1
(1: 0, 2: 1)

---

Target under test: CAMK1G (1-320) (Homo sapiens, UniProt Q96NX5)
Construct: made in house; host or cells: E. coli BL21 (DE3) pLysS
Sequence (Q96NX5 1-320): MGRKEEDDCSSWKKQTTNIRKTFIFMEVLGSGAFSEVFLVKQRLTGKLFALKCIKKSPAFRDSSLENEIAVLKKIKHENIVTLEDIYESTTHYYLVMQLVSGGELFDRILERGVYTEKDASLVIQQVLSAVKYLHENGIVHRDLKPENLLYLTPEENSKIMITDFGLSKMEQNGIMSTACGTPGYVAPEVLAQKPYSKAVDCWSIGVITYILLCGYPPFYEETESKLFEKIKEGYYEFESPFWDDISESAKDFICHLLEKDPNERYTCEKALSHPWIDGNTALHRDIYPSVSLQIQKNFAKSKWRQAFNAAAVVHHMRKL
Method notes: STD-NMR fragment screening, CAMK1G
Assay type: binding
Condition label: 1 = hit, 0 = no hit
Quantity measured: CAMK1G (STD-NMR hit flag)

Reference set (4 entries):
[[record]]
compound = "Cc1ncccc1Br [Fragment B02289619]"
endpoint_value = 1

[[record]]
compound = "O=C(O)c1ccnc(Cl)c1 [Fragment B02291239]"
endpoint_value = 0

[[record]]
compound = "Cc1c(Cl)c(C(=O)O)nn1C [Fragment B02291218]"
endpoint_value = 0

[[record]]
compound = "CC(=O)CS(=O)(=O)c1cc(Cl)ccc1F [Fragment B02297765]"
endpoint_value = 0


1: NC1CCSc2ccc(Cl)cc21 (centres unmarked) [Fragment B02291226]
2: Cn1c2nc(Br)nc-2c(O)n(C)c1=O [Fragment B02291266]
stdin: Please indicate which has the smaller reported CAMK1G (STD-NMR hit flag): 1 , or 2 . State the label of the item chosen.
stdout: 1
(1: 0, 2: 1)

A: Nc1c(Cl)ncnc1NC1CC1 [Fragment B02291230]
B: Cc1cc(N)c(Br)cn1 [Fragment B02297406]
stdin: Please indicate which has the smaller reported CAMK1G (STD-NMR hit flag): A , or B . State the label of the item chosen.
stdout: B
(B: 0, A: 1)

1: Cn1nc(Br)nc1NN [Fragment B02290120]
2: O=C(O)c1c(Cl)cncc1Cl [Fragment B02297411]
stdin: Returns: the argument ( 1 or 2 ) having the larger CAMK1G (STD-NMR hit flag). State the label of the item chosen.
stdout: 1

---

Target under test: CAMK1G (1-320) (Homo sapiens, UniProt Q96NX5)
Construct: made in house; host or cells: E. coli BL21 (DE3) pLysS
Method notes: STD-NMR fragment screening, CAMK1G
Assay type: binding
Condition label: 1 = hit, 0 = no hit
Quantity measured: CAMK1G (STD-NMR hit flag)

[[record]]
molecule = "O=c1[nH]cnc(O)c1Br"
endpoint_value = 0

[[record]]
molecule = "Cn1ncc(I)c1C(=O)NN"
endpoint_value = 0

[[record]]
molecule = "O=C(O)c1cncc(Cl)n1"
endpoint_value = 0

[[record]]
molecule = "Cn1nc(Br)c(C(=O)NCC(=O)O)c1N"
endpoint_value = 0


1: COc1nc(N)ncc1I
2: NC(CCO)c1ccc(Cl)cc1Cl (centres unmarked)
stdin: Returns: the argument ( 1 or 2 ) having the larger CAMK1G (STD-NMR hit flag). State the label of the item chosen.
stdout: 1
(1: 1, 2: 0)

I: Cc1nn(CC(=O)O)c(C)c1Cl
II: COc1cc(OC)nc(Cl)n1
stdin: Please indicate which has the smaller reported CAMK1G (STD-NMR hit flag): I , or II . State the label of the item chosen.
stdout: II
(II: 0, I: 1)

---

Target under test: IDO1 (1-435) (Homo sapiens)
Construct: His-tag of pET15b with TEV site (thrombin site replaced) (cleaved yes); made in house; host or cells: E. coli Rosetta 2 (DE3) pLysS
Method notes: STD-NMR fragment screening, IDO1
Type: binding
Condition label: 1 = hit, 0 = no hit
Quantity measured: IDO1 (STD-NMR hit flag)

Reference set (5 entries):
[[record]]
compound = "Clc1cnccn1 [Fragment B02291240]"
endpoint_value = 0

[[record]]
compound = "Clc1cnc(Cl)nc1 [Fragment B02291267]"
endpoint_value = 0

[[record]]
compound = "Brc1csc(CN2CCNCC2)c1 [Fragment B02290122]"
endpoint_value = 0

[[record]]
compound = "O=c1[nH]c2ccc(Cl)nc2[nH]1 [Fragment B02290474]"
endpoint_value = 0

[[record]]
compound = "N#Cc1n[nH]cc1Br [Fragment B02290464]"
endpoint_value = 1


I: N#Cc1ccnc(Cl)c1 [Fragment B02291271]
II: COc1ncc(Cl)cc1C(=O)O [Fragment B02297429]
stdin: Please indicate which has the smaller reported IDO1 (STD-NMR hit flag): I , or II . State the label of the item chosen.
stdout: I

a: Clc1ncccn1 [Fragment B02291224]
b: Cn1c2nc(Cl)nc-2c(O)n(C)c1=O [Fragment B02291216]
stdin: Please indicate which has the smaller reported IDO1 (STD-NMR hit flag): a , or b . State the label of the item chosen.
stdout: a

P: NC(=O)c1cc2c(nc1Cl)CCC2 [Fragment B02291222]
Q: Cc1n[nH]c(C)c1I [Fragment B02290459]
stdin: Returns: the argument ( P or Q ) having the larger IDO1 (STD-NMR hit flag). State the label of the item chosen.
stdout: Q
(Q: 1, P: 0)

---

Target under test: AAK1 (121-471) (Homo sapiens, UniProt Q2M2I8)
Method notes: STD-NMR fragment screening, AAK1
Type: binding
Condition label: 1 = hit, 0 = no hit
Quantity measured: AAK1 (STD-NMR hit flag)

[[record]]
smiles_text = "Oc1ccc(Cl)cc1/C=C/C12CN3CN(CN(C3)C1)C2"
quantity_measured = "AAK1 (STD-NMR hit flag)"
endpoint_value = 0

[[record]]
smiles_text = "NCCCn1cc(Cl)cn1"
quantity_measured = "AAK1 (STD-NMR hit flag)"
endpoint_value = 0

[[record]]
smiles_text = "Clc1cnc2nn[nH]c2c1"
quantity_measured = "AAK1 (STD-NMR hit flag)"
endpoint_value = 0

[[record]]
smiles_text = "Nc1ncc(Br)cc1CO"
quantity_measured = "AAK1 (STD-NMR hit flag)"
endpoint_value = 1

[[record]]
smiles_text = "Brc1nnc2n1CCNC2"
quantity_measured = "AAK1 (STD-NMR hit flag)"
endpoint_value = 0


a: Nc1nc(Cl)nc2[nH]cnc12
b: O=C(O)c1cncc(Cl)c1
stdin: Returns: the argument ( a or b ) having the larger AAK1 (STD-NMR hit flag). State the label of the item chosen.
stdout: b
